assayExplanation: Equilibrium solubility in biorelevant media
Type: physicochemical
conditionLabel: fassgf or other biorelevant, thermodynamic from solid; FeSSGF pH 5.0, 37 °C, 3 days, mean ± SD (n = 3); read-out: Equilibrium solubility FeSSGF
measuredAttribute: log10 solubility thermodynamic at 3 days (log10 of the value in µg/mL)
Use the decimal logarithm of solubility thermodynamic at 3 days (µg/mL).

Worked examples, 3 molecules total:
molecule: C=C1[C@H](CO)[C@@H](O)C[C@@H]1n1cnc2c(=O)nc(N)[nH]c21 [EV, reference compound]
number: 3.33

molecule: C=C1[C@H](COC(=O)CCCCC)[C@@H](O)C[C@@H]1n1cnc2c(=O)[nH]c(N)nc21
number: 1.40

molecule: C=C1[C@H](COC(=O)CCCCCCCCCCC)[C@@H](O)C[C@@H]1n1cnc2c(=O)[nH]c(N)nc21
number: 1.88

Please state, for each entry, its recorded log10 solubility thermodynamic at 3 days.
1. C=C1[C@H](COC(=O)CCCCCCC)[C@@H](O)C[C@@H]1n1cnc2c(=O)[nH]c(N)nc21
2. C=C1[C@H](COC(=O)CCCCCCCCC)[C@@H](O)C[C@@H]1n1cnc2c(=O)[nH]c(N)nc21

1.58
1.79

----------
Record form. Attribute: solubility thermodynamic at 3 days. Fill in for each entry.
assayExplanation: Equilibrium solubility in biorelevant media
Assay type: physicochemical
conditionLabel: fassgf or other biorelevant, thermodynamic from solid; FaSSGF pH 1.6, 37 °C, 3 days, mean ± SD (n = 3); read-out: Equilibrium solubility FaSSGF
Give bare numbers, in µg/mL.

Give solubility thermodynamic at 3 days for each listed item.
1. C=C1[C@H](CO)[C@@H](O)C[C@@H]1n1cnc2c(=O)nc(N)[nH]c21 [EV, reference compound]
2. C=C1[C@H](COC(=O)CCCCCCCCCCC)[C@@H](O)C[C@@H]1n1cnc2c(=O)[nH]c(N)nc21
3. C=C1[C@H](COC(=O)CCCCCCC)[C@@H](O)C[C@@H]1n1cnc2c(=O)[nH]c(N)nc21
4. C=C1[C@H](COC(=O)CCCCC)[C@@H](O)C[C@@H]1n1cnc2c(=O)[nH]c(N)nc21
5. C=C1[C@H](COC(=O)CCCCCCCCC)[C@@H](O)C[C@@H]1n1cnc2c(=O)[nH]c(N)nc21

8940
4.82
4.74
4.84
4.41

----------
assayExplanation: Equilibrium solubility in biorelevant media
Assay type: physicochemical
conditionLabel: biorelevant media (FaSSGF, fassgf or other biorelevant, thermodynamic from solid); FaSSGF, FaSSIF, FeSSGF, FeSSIF, 37 °C; read-out: Aqueous solubility in all media tested
measuredAttribute: solubility at 3 days

Give me measured solubility at 3 days, please, for this compound: C=C1[C@H](CO)[C@@H](O)C[C@@H]1n1cnc2c(=O)nc(N)[nH]c21 [EV, reference compound] > 1600 µg/mL

----------
assayExplanation: Equilibrium solubility in biorelevant media
Format: physicochemical
conditionLabel: thermodynamic from solid; FaSSIF pH 6.5, 37 °C, 3 days, mean ± SD (n = 3); read-out: Equilibrium solubility FaSSIF
1.0 means recorded solubility thermodynamic at 3 days is 6 µg/mL or above; 0.0 means it is below 6 µg/mL.

Does the reported solubility thermodynamic at 3 days for C=C1[C@H](COC(=O)CCCCC)[C@@H](O)C[C@@H]1n1cnc2c(=O)[nH]c(N)nc21 [EV-C6] fall at or above the 6 µg/mL mark? 0.0

Dear colleague, could you confirm whether C=C1[C@H](COC(=O)CCCCCCCCC)[C@@H](O)C[C@@H]1n1cnc2c(=O)[nH]c(N)nc21 [EV-C10] has solubility thermodynamic at 3 days at or above 6 µg/mL? 1.0

Say whether C=C1[C@H](COC(=O)CCCCCCC)[C@@H](O)C[C@@H]1n1cnc2c(=O)[nH]c(N)nc21 [EV-C8] shows solubility thermodynamic at 3 days of 6 µg/mL or more. 0.0

Decide: solubility thermodynamic at 3 days of C=C1[C@H](COC(=O)CCCCCCCCCCC)[C@@H](O)C[C@@H]1n1cnc2c(=O)[nH]c(N)nc21 [EV-C12] >= 6 µg/mL? 1.0

Hi, just wondering whether C=C1[C@H](CO)[C@@H](O)C[C@@H]1n1cnc2c(=O)nc(N)[nH]c21 [EV, reference compound] shows solubility thermodynamic at 3 days of 6 µg/mL or higher. 1.0

----------
assayExplanation: Equilibrium solubility in biorelevant media
Type: physicochemical
conditionLabel: thermodynamic from solid; FeSSIF pH 5.8, 37 °C, 3 days, mean ± SD (n = 3); read-out: Equilibrium solubility FeSSIF
measuredAttribute: log10 of solubility thermodynamic at 3 days (log10 of the value in µg/mL)
Lab note - solubility thermodynamic at 3 days converted to log10 from values in µg/mL.

Could I get log10 of solubility thermodynamic at 3 days for every one of these entries?
1. C=C1[C@H](COC(=O)CCCCCCC)[C@@H](O)C[C@@H]1n1cnc2c(=O)[nH]c(N)nc21 [EV-C8]
2. C=C1[C@H](COC(=O)CCCCCCCCCCC)[C@@H](O)C[C@@H]1n1cnc2c(=O)[nH]c(N)nc21 [EV-C12]
3. C=C1[C@H](CO)[C@@H](O)C[C@@H]1n1cnc2c(=O)nc(N)[nH]c21 [EV, reference compound]

1: 1.56; 2: 1.90; 3: 3.35

Hi there! I need log10 of solubility thermodynamic at 3 days for each item below, if you can.
1. C=C1[C@H](COC(=O)CCCCC)[C@@H](O)C[C@@H]1n1cnc2c(=O)[nH]c(N)nc21 [EV-C6]
2. C=C1[C@H](COC(=O)CCCCCCCCC)[C@@H](O)C[C@@H]1n1cnc2c(=O)[nH]c(N)nc21 [EV-C10]

1: 1.40; 2: 1.82

----------
Please provide measured Hydrolyzed percentage for the entries that follow.
assayExplanation: Hydrolysis in simulated gastric fluid (pH 1.2)
Assay type: physicochemical
conditionLabel: simulated gastric fluid pH 1.2, 37 °C, after 12 h, 20 μg/mL
Give bare numbers, in %.

Some compounds with recorded Hydrolyzed percentage:
compound: C=C1[C@H](COC(=O)CCCCC)[C@@H](O)C[C@@H]1n1cnc2c(=O)[nH]c(N)nc21 [EV-C6]
Hydrolyzed percentage / %: 59.1
--
compound: C=C1[C@H](COC(=O)CCCCCCC)[C@@H](O)C[C@@H]1n1cnc2c(=O)[nH]c(N)nc21 [EV-C8]
Hydrolyzed percentage / %: 46.2
--
compound: C=C1[C@H](COC(=O)CCCCCCCCC)[C@@H](O)C[C@@H]1n1cnc2c(=O)[nH]c(N)nc21 [EV-C10]
Hydrolyzed percentage / %: 44.4

Continue with the next compound.
Fill in Hydrolyzed percentage for record C=C1[C@H](COC(=O)CCCCCCCCCCC)[C@@H](O)C[C@@H]1n1cnc2c(=O)[nH]c(N)nc21 [EV-C12] 22.5
